Assayed system: PTPμ (Homo sapiens, UniProt P28827)
pIC50: −log10 of the molar value.
Reported endpoint: pIC50

Compound: Cc1c(Br)cc(NC(=O)C(c2ccccc2)S(=O)(=O)O)cc1Br (stereo not shown)
Reported endpoint: pIC50
Test result: < 3.70

###

Assayed system: UniProtKB Q06124
Sequence (Q06124 224-528): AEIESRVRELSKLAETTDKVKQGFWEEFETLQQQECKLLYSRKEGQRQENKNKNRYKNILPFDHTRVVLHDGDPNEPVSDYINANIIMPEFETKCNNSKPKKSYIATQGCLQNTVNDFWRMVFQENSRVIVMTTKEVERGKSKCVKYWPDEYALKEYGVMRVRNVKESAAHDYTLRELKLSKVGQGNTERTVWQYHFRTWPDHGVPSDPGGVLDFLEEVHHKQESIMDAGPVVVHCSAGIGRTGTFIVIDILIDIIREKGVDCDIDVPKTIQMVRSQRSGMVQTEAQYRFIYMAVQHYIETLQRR
Protocol text: SHP2 inhibition, pNPP substrate
Assay type: biochemical
Condition details: pNPP at Km, pH 7.0, 25° C.
pIC50: −log10 of the molar value.
Reported endpoint: pIC50

Compound: O=C(Nc1ccc(-n2ccnc2)cc1)C(c1ccccc1)S(=O)(=O)O (centres unmarked) [Compound L319M63]
Test result: < 4.00

Compound: Cc1c(Br)cc(NC(=O)C(c2ccccc2)S(=O)(=O)O)cc1Br (centres unmarked) [Compound L319M34]
Test result: < 3.70

###

VHR (Homo sapiens, UniProt P51452): reported IC50 for various molecules.
Sequence (P51452 whole entry): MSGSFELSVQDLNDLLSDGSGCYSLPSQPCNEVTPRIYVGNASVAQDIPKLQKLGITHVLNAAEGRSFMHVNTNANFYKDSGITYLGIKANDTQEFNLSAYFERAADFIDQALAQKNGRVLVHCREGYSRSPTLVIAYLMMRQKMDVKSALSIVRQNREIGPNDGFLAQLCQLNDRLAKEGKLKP

Molecule: Cc1c(Br)cc(NC(=O)C(c2ccccc2)S(=O)(=O)O)cc1Br (centres unmarked) [Compound L319M34]
Assayed system: VHR (Homo sapiens, UniProt P51452)
IC50: > 200 µM

Molecule: O=C(Nc1ccc(-n2ccnc2)cc1)C(c1ccccc1)S(=O)(=O)O (centres unmarked) [Compound L319M63]
Assayed system: VHR (Homo sapiens, UniProt P51452)
IC50: > 100 µM

###

Assayed system: UniProtKB Q9BVJ7
Sequence (Q9BVJ7 1-150): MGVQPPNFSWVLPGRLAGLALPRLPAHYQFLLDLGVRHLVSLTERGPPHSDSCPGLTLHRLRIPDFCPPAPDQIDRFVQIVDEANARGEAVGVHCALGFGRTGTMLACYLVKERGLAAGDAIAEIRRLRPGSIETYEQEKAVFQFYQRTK

Molecule: Cc1c(Br)cc(NC(=O)C(c2ccccc2)S(=O)(=O)O)cc1Br (stereo not shown) [Compound L319M34]
IC50: > 200 µM

###

Assayed system: PTP1B (Homo sapiens, UniProt P18031)
Sequence (P18031 whole entry): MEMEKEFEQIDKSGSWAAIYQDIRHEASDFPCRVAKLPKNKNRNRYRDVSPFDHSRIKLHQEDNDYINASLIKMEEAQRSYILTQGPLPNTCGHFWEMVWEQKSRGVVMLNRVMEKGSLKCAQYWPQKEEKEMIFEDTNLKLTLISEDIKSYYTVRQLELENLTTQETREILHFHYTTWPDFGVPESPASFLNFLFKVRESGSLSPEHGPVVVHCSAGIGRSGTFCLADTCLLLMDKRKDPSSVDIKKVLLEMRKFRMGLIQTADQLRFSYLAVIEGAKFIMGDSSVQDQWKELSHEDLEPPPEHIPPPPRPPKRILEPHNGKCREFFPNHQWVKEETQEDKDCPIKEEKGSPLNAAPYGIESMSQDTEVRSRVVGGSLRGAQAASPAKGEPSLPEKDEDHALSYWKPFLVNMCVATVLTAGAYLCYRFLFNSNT
Protocol text: PTP1B inhibition, pNPP substrate
Type: biochemical
Condition details: pNPP at Km, pH 7.0, 25° C.
Measured IC50 of individual entries
Reported endpoint: IC50

Compound: O=C(Nc1ccc(-n2ccnc2)cc1)C(c1ccccc1)S(=O)(=O)O (centres unmarked)
Test result: > 100 µM

Compound: Cc1c(Br)cc(NC(=O)C(c2ccccc2)S(=O)(=O)O)cc1Br (centres unmarked)
Test result: > 200 µM

###

Assayed system: MKP3 (Homo sapiens)
Sequence (Q16828 1-381): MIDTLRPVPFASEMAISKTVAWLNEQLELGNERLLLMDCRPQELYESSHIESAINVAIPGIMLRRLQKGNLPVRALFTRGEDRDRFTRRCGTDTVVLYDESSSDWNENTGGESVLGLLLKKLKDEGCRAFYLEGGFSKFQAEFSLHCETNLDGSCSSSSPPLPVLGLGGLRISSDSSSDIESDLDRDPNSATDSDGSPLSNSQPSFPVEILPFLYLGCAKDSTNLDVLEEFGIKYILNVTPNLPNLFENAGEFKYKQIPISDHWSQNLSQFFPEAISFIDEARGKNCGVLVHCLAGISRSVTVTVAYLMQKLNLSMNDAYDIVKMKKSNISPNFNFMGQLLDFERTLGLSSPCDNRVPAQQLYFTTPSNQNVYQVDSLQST
Reported endpoint: IC50

Compound: Cc1c(Br)cc(NC(=O)C(c2ccccc2)S(=O)(=O)O)cc1Br (stereo not shown) [Compound L319M34]
Reported endpoint: IC50
Test result: > 200 µM

###

Assayed system: PTPσ (Homo sapiens, UniProt Q13332)
Sequence (Q13332 30-1948): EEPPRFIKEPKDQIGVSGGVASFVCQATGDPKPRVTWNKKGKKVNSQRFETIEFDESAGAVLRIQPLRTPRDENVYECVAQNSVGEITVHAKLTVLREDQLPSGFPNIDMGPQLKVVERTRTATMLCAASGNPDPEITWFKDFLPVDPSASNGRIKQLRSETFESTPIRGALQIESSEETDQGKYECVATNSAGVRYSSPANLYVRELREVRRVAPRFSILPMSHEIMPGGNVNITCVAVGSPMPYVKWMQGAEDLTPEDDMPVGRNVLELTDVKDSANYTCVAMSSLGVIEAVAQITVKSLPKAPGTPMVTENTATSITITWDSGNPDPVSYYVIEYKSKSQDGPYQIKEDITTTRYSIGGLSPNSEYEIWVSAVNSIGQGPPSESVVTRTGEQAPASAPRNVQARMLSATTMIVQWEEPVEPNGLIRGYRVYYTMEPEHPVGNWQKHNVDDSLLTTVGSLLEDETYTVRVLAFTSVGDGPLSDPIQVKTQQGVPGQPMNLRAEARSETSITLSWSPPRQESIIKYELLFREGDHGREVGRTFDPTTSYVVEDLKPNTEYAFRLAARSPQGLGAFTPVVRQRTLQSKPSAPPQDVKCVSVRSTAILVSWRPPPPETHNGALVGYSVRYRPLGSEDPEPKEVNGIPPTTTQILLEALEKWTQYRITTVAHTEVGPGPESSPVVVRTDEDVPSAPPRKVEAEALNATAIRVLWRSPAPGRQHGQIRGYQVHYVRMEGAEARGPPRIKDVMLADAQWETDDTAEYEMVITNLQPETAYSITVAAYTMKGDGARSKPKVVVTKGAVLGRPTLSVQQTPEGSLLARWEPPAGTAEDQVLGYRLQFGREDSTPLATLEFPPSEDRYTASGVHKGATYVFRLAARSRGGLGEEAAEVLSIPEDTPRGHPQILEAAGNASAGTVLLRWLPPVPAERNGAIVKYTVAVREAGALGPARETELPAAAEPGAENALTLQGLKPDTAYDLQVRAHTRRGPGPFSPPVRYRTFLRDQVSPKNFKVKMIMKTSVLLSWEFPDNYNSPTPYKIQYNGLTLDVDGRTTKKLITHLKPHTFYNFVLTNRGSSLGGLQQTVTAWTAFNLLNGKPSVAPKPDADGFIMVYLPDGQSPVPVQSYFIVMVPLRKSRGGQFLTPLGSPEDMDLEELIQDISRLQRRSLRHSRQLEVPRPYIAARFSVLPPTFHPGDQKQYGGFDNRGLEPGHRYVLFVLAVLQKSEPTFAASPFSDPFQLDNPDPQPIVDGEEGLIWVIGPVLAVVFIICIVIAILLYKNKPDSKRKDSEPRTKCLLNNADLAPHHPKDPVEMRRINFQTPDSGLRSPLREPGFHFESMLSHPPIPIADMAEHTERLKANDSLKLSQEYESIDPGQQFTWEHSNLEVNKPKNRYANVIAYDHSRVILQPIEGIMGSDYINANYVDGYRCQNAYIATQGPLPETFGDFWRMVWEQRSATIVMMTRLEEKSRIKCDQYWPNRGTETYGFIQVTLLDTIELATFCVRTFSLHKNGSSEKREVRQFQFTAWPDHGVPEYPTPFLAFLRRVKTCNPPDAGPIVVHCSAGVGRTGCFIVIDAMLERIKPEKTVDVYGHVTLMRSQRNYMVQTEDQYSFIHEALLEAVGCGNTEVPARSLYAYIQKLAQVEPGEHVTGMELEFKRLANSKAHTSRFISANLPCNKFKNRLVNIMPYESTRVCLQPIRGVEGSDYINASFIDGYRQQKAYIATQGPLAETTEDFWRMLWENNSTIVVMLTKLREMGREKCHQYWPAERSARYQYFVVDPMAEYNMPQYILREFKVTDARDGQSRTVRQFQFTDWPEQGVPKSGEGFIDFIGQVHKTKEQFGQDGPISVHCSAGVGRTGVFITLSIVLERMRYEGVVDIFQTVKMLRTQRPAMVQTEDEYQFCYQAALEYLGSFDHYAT
pIC50: −log10 of the molar value.

Molecule: Cc1c(Br)cc(NC(=O)C(c2ccccc2)S(=O)(=O)O)cc1Br (stereo not shown)
pIC50: < 3.70

###

Assayed system: mPTPB (Mycobacterium tuberculosis)
pIC50: −log10 of the molar value.

Compound: NC(=O)C(c1ccccc1)S(=O)(=O)O (stereo not drawn) [SPAA, α-sulfophenylacetic amide, reference compound]
pIC50: 3.70

###

pIC50: −log10 of the molar value.
For LYP (Homo sapiens), measured pIC50 is reported for the entries below.

Molecule: Cc1c(Br)cc(NC(=O)C(c2ccccc2)S(=O)(=O)O)cc1Br (centres unmarked) [Compound L319M34]
Assayed system: LYP (Homo sapiens)
Sequence (Q9Y2R2 whole entry): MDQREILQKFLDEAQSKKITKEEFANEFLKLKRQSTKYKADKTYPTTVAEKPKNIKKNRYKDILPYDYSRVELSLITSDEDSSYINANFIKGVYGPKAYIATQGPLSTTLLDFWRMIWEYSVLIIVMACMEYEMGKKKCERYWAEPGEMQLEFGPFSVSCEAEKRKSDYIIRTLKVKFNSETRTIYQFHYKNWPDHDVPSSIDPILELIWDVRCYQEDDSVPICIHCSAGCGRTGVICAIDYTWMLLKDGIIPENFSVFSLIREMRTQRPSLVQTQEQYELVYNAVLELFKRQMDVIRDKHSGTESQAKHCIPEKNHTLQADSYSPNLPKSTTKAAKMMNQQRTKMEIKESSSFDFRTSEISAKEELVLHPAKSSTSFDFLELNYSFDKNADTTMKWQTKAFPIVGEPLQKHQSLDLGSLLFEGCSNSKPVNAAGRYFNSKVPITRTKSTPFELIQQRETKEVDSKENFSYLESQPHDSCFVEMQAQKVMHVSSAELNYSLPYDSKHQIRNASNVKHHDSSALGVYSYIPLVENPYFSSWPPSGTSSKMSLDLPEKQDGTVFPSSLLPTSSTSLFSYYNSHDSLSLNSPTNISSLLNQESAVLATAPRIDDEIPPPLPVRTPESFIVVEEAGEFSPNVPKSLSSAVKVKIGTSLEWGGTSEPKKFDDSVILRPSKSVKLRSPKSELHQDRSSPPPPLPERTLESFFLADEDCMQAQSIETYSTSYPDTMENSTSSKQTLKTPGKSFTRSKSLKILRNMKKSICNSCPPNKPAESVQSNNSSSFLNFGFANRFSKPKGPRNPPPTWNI
pIC50: < 3.70
--
Molecule: O=C(Nc1ccc(-n2ccnc2)cc1)C(c1ccccc1)S(=O)(=O)O (centres unmarked) [Compound L319M63]
Assayed system: LYP (Homo sapiens)
pIC50: < 4.00

###

Assayed system: CDC14A (Homo sapiens, UniProt Q9UNH5)
Sequence (Q9UNH5 whole entry): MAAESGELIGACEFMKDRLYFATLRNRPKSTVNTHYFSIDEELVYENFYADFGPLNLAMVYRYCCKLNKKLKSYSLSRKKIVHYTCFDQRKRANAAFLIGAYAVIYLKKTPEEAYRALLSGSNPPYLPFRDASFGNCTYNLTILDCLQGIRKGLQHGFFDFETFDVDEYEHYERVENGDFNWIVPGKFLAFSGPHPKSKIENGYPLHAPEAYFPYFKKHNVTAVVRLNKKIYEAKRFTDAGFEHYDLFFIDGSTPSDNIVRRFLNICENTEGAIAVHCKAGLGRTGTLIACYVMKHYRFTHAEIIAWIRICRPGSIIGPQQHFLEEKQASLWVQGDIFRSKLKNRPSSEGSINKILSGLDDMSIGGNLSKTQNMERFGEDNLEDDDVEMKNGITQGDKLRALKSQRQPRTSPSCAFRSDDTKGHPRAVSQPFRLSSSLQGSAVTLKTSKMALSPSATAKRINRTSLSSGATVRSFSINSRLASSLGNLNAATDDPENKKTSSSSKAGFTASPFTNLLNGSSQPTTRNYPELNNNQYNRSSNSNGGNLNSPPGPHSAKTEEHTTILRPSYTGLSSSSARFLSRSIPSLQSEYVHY
Reported endpoint: IC50

Compound: Cc1c(Br)cc(NC(=O)C(c2ccccc2)S(=O)(=O)O)cc1Br (stereo not shown)
Test result: > 200 µM

###

Assayed system: SHP1 (Homo sapiens, UniProt P29350)
Sequence (P29350 whole entry): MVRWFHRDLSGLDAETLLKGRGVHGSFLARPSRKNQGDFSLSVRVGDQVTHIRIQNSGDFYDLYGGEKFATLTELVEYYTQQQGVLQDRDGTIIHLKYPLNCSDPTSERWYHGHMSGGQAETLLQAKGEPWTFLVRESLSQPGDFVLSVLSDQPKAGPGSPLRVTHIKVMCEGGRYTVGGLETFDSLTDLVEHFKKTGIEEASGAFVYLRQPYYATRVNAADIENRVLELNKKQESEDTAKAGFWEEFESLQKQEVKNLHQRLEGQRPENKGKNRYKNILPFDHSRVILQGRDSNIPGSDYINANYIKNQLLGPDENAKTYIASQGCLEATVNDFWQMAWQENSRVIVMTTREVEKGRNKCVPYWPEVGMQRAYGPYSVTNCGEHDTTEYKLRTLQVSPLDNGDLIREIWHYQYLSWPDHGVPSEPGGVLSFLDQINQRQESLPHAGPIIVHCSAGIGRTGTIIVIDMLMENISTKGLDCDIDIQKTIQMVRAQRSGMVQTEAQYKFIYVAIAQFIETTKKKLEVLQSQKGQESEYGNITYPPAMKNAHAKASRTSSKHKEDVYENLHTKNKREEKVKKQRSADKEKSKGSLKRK
Reported endpoint: IC50

Compound: Cc1c(Br)cc(NC(=O)C(c2ccccc2)S(=O)(=O)O)cc1Br (stereo not shown) [Compound L319M34]
Assayed system: SHP1 (Homo sapiens, UniProt P29350)
Test result: > 200 µM

###

Assayed system: LAR (Homo sapiens, UniProt P10586)
pIC50: −log10 of the molar value.

Compound: Cc1c(Br)cc(NC(=O)C(c2ccccc2)S(=O)(=O)O)cc1Br (stereo not shown)
pIC50: < 3.70
